Tgt: recombinant human VEGF165 (human, UniProt P15692 207-395)
Sequence (P15692 other isoform, or with tags, fused parts or gaps limits assumed): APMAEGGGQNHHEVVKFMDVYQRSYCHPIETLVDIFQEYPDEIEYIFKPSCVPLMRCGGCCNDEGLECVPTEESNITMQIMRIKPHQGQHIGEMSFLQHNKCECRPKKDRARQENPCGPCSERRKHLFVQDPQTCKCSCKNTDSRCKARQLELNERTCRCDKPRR
Experiment: cell-based or functional assay
Hi! Could you tag entries with hVEGF165 IC50 (nM), Potency HMVEC-d (hVEGF165-induced proliferation) below 0.1 nM as true, and those at or above as false? Much appreciated.

{"columns": ["Binder", "Group Label"],
 "data": [
  ["CL-34540-IgG (antibody, V domains shown, also called h4G8 CL-34540) VH: EVQLVQSGSELKKPGASVKVSCKASGYTFTDYGMYWVRQAPGQGLEWMGWIDTETGQPTYADDFKGRFVFSLDTSVSTAYLQISSLKAEDTAVYYCARTNYYYRSYMFYFDYWGQGTMVTVSS VL: EIVLTQSPATLSLSPGERATLSCRASESVGKHMHWYQQKPGQAPRLLIYAASNLESGVPARFSGSGSGTDFTLTISSLEPEDFAVYYCQQSWYDPLTFGQGTKLEIK", "false"],
  ["CL-34565-IgG (antibody, V domains shown, also called h4G8 CL-34565) VH: EVQLVQSGSELKKPGASVKVSCKASGYTFTDYGMYWVRQAPGQGLEWMGWIDTETGDPTYADDFKGRFVFSLDTSVSTAYLQISSLKAEDTAVYYCARTNYYYRNYMFYFDYWGQGTMVTVSS VL: EIVLTQSPATLSLSPGERATLFCRASQSVSNHMHWYQQKPGQAPRLLIYGASILESGVPARFSGSGSGTDFTLTISSLEPEDFAVYYCQQSWYDPITFGQGTKLEIK", "false"],
  ["CL-34522-IgG (antibody, V domains shown, also called h4G8 CL-34522) VH: EVQLVQSGSELKKPGASVKVSCKASGYTFENYGMYWVRQAPGQGLEWMGWIDTETGEPTYADDFKGRFVFSLDTSVSTAYLQISSLKAEDTAVYYCARTNYYYSSYMFYFDYWGQGTMVTVSS VL: EIVLTQSPATLSLSPGERATLSCRASQSVGTHMHWYQQKPGQAPRLLIYGASKLESGVPARFSGSGSGTDFTLTISSLEPEDFAVYYCQQSWYDPLTFGQGTKLEIK", "false"],
  ["CL-34538-IgG (antibody, V domains shown, also called h4G8 CL-34538) VH: EVQLVQSGSELKKPGASVKVSCKASGYTFTDYGMYWVRQAPGQGLEWMGWIDTETGEPTYADDFKGRFVFSLDTSVSTAYLQISSLKAEDTAVYYCARTNYYYPSYMFYFDYWGQGTMVTVSS VL: EIVLTQSPATLSLSPGERATLSCRASQSVSTHMHWYQQKPGQAPRLLIYGASNLESGVPARFSGSGSGTDFTLTISSLEPEDFAVYFCQQTWYDPLTFGQGTKLEIK", "false"],
  ["CL-34469-IgG (antibody, V domains shown, also called h4G8 CL-34469) VH: EVQLVQSGSELKKPGASVKVSCKASGYTFTNYGMYWVRQAPGQGLEWMGWIDTETGEPTYADDFKGRFVFSLDTSVSTAYLQISSLKAEDTAVYYCARTNYYYRSYMFYFDYWGQGTMVTVSS VL: EIVLTQSPATLSLSPGERATLSCRASQSVSTHMHWYQQKPGQAPRLLIYGASNLESGVPARFSGSGSGTDFTLTISSLEPEDFAVYYCQQSWYDPLTFGQGTKLEIK", "true"],
  ["CL-34475-IgG (antibody, V domains shown, also called h4G8 CL-34475) VH: EVQLVQSGSELKKPGASVKVSCKASGYTFTDYGMYWVRQAPGQGLEWMGWIDTETGEPTYADDFKGRFVFSLDTSVSTAYLQISSLKAEDTAVYYCARTNYYYSSYMFYFDYWGQGTMVTVSS VL: EIVLTQSPATLSLSPGERATLSCRASQSVSTHMHWYQQKPGQAPRLLIYGASNLESGIPARFSGSGSGTDFTLTISSLEPEDFAVYYCQQSWYDPLTFGQGTKLEIK", "false"],
  ["CL-34633-IgG (antibody, V domains shown, also called h4G8 CL-34633) VH: EVQLVQSGSELKKPGASVKVSCKASGYTFSDYGMYWVRQAPGQGLEWMGWIDTETGEPTYADDFKGRFVFSLDTSVSTAYLQISSLKAEDTAVYYCARTNYYYRSYMFYFDYWGQGTMVTVSS VL: EIVLTQSPATLSLSPGERATLSCRASQSVSTHMHWYQQKPGQAPRLLIYGASNLESGVPARFSGSGSGTDFTLTISSLEPEDFAVYFCQQSWYDPLTFGQGTKLEIK", "false"],
  ["CL-34570-IgG (antibody, V domains shown, also called h4G8 CL-34570) VH: EVQLVQSGSELKKPGASVKVSCKASGYTFDDYGMYWVRQAPGQGLEWMGWIDTETGTPTYADDFKGRFVFSLDTSVSTAYLQISSLKAEDTAVYYCARTNYYYSSYMFYFDYWGQGTMVTVSS VL: EIVLTQSPATLSLSPGERATLSCRASQSVSTHMHWYQQKPGQAPRLLIYGASNLESGIPARFSGSGSGTDFTLTISSLEPEDFAVYYCQQSWYDPLTFGQGTKLEIK", "false"],
  ["CL-34449-IgG (antibody, V domains shown, also called h4G8 CL-34449) VH: EVQLVQSGSELKKPGASVKVSCKASGYTFTDYGMYWVRQAPGQGLEWMGWIDTETGEPTYADDFKGRFVFSLDTSVSTAYLQISSLKAEDTAVYYCARTNYYYRSYMFYFDYWGQGTMVTVSS VL: EIVLTQSPATLSLSPGERATLSCRASQSVGTHMHWYQQKPGQAPRLLIYGASHLESGIPARFSGSGSGTDFTLTISSLEPEDFAVYYCQQTWYDPLTFGQGTKLEIK", "true"],
  ["CL-34455-IgG (antibody, V domains shown, also called h4G8 CL-34455) VH: EVQLVQSGSELKKPGASVKVSCKASGYTFTNYGMYWVRQAPGQGLEWMGWIDTETGEPTYAQGFTGRFVFSLDTSVSTAYLQISSLKAEDTAVYYCARTNYYYPSYMFYFDYWGQGTMVTVSS VL: EIVLTQSPATLSLSPGERATLSCRASQSVGTHMHWYQQKPGQAPRLLIYGASKLESGVPARFSGSGSGTDFTLTISSLEPEDFAVYYCQQSWYDPLTFGQGTKLEIK", "false"],
  ["CL-32416-IgG (antibody, V domains shown, also called h4G8 CL-32416) VH: EVQLVQSGSELKKPGASVKVSCKASGYTFTDYGMYWVRQAPGQGLEWMGWIDTETGEPTYADDFKGRFVFSLDTSVSTAYLQISSLKAEDTAVYYCARTNYYYRSYMFYFDYWGQGTMVTVSS VL: EIVLTQSPATLSLSPGERATLSCRASESVSTHMHWYQQKPGQAPRLLIYGASNLESGVPARFSGSGSGTDFTLTISSLEPEDFAVYFCQQSWNDPFTFGQGTKLEIK", "false"]
]}
